Target: human GluN1/GluN2B NMDA receptors (Homo sapiens, UniProt Q13224)
Construct: expressed in transfected cells
Sequence (Q13224 27-1484, other chains not shown): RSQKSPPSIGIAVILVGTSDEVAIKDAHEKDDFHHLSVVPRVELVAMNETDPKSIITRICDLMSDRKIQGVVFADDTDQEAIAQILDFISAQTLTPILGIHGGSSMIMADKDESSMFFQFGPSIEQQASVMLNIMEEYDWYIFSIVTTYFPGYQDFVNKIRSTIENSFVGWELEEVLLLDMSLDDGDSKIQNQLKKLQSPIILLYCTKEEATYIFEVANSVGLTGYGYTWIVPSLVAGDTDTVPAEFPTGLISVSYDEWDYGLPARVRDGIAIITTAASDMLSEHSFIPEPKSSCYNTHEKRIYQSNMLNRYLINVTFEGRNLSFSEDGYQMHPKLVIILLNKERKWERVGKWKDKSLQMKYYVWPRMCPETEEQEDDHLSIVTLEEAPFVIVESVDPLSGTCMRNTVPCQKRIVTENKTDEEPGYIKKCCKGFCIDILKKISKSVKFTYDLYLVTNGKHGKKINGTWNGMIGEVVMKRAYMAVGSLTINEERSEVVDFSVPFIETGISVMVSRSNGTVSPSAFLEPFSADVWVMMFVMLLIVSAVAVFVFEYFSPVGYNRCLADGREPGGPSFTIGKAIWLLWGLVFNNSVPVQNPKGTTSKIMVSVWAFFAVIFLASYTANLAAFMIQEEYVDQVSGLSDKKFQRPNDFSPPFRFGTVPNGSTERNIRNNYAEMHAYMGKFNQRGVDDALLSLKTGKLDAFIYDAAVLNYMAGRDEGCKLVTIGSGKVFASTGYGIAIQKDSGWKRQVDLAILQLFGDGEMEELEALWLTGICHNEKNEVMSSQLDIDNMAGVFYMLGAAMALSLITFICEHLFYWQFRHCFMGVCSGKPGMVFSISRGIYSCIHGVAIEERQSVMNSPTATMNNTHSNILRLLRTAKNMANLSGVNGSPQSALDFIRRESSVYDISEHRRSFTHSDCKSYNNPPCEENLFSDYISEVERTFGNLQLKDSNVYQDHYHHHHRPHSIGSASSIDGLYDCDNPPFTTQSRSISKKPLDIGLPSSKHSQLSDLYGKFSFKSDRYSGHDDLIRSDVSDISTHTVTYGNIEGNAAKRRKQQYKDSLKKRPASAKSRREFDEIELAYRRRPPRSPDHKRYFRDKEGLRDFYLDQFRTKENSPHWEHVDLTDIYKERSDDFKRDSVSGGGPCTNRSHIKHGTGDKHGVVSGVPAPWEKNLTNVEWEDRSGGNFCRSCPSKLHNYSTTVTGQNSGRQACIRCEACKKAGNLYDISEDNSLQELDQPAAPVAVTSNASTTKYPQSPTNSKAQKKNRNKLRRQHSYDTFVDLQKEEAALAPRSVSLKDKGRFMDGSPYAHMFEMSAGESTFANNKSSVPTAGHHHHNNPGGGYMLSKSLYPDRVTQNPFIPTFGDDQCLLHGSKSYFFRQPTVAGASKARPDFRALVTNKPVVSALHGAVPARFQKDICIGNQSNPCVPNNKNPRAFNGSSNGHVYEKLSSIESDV
Experiment: Cell-based calcium flux (FLIPR) assay on cloned human NR1/NR2B ion channels expressed in mammalian cells (standard and HTS buffer variants)
Conditions: standard assay buffer (0.5 mM MgCl2 dye loading; 137 mM NaCl, 4 mM KCl assay buffer), human GluN1/GluN2B cells, read-out: NR2B IC50 (μM) standard assay
I'd appreciate it if you marked entries Yes when IC50 is lower than 0.09 µM and No when it is not.

[
  {
    "Compound": "O=c1[nH]c2ncc(-c3cccc(C(F)(F)F)c3)cc2n1Cc1ccccn1 [Example 228]",
    "Tested system": "human GluN1/GluN2B NMDA receptors (Homo sapiens, UniProt Q13224)",
    "Class label": "Yes"
  }
]

-- ask Find out if reported IC50 for COC1CN(CCn2c(=O)[nH]c3ncc(-c4cccc(C(F)(F)F)c4)cc32)C1 [Example 149] is less than 0.09 µM
-- reply No

----------
Target: human GluN1/GluN2B NMDA receptors (Homo sapiens)
Construct: expressed in transfected cells
Test: Cell-based calcium flux (FLIPR) assay on cloned human NR1/NR2B ion channels expressed in mammalian cells (standard and HTS buffer variants)
Conditions: standard assay buffer (0.5 mM MgCl2 dye loading; 137 mM NaCl, 4 mM KCl assay buffer), human GluN1/GluN2B cells, read-out: NR2B IC50 (μM) standard assay
I'd appreciate it if you marked entries y when IC50 is lower than 0.3 µM and n when it is not.

[
  {
    "Compound": "O=c1[nH]c2ncc(-c3cc(F)cc(F)c3)cc2n1CCN1CCC(O)C1 (stereo not drawn)",
    "Class label": "n"
  },
  {
    "Compound": "Cc1cc(-c2cnc3[nH]c(=O)n(Cc4ccccn4)c3c2)ccc1F",
    "Class label": "y"
  },
  {
    "Compound": "Cn1c(=O)n(Cc2cccnc2)c2cc(-c3cccc(F)c3)cnc21",
    "Class label": "n"
  }
]

-- ask Find out if reported IC50 for Cc1c(F)ccc(-c2cnc3c(c2)n(Cc2cccnn2)c(=O)n3C)c1F is less than 0.3 µM
-- reply y

----------
Target: human GluN1/GluN2B NMDA receptors (Homo sapiens, UniProt Q13224)
Construct: expressed in transfected cells
Assay: Cell-based calcium flux (FLIPR) assay on cloned human NR1/NR2B ion channels expressed in mammalian cells (standard and HTS buffer variants)
Settings: standard assay buffer (0.5 mM MgCl2 dye loading; 137 mM NaCl, 4 mM KCl assay buffer), human GluN1/GluN2B cells, read-out: NR2B IC50 (μM) standard assay
Observed property: IC50 (µM)
One number for each entry, in µM.

[
  {
    "Smiles representation": "Cn1c(=O)n(CC(=O)N2CCC2)c2cc(-c3csc(C(F)F)c3)cnc21",
    "Observed property": "IC50",
    "Observed measurement": 0.013
  }
]

Your task in this section: give IC50 for each listed record.
1. O=c1[nH]c2ncc(-c3cccc(C(F)(F)F)c3)cc2n1Cc1cnccc1C(F)(F)F
2. COc1ccc(Cn2c(=O)[nH]c3ncc(-c4cccc(C(F)(F)F)c4)cc32)cn1
3. Cc1cc(Cn2c(=O)[nH]c3ncc(-c4ccc(F)cc4)cc32)no1

-- reply
[2.86, 1.62, 0.029]

----------
Target: human GluN1/GluN2B NMDA receptors (Homo sapiens, UniProt Q13224)
Construct: expressed in transfected cells
Assay: Cell-based calcium flux (FLIPR) assay on cloned human NR1/NR2B ion channels expressed in mammalian cells (standard and HTS buffer variants)
Details: standard assay buffer (0.5 mM MgCl2 in dye loading buffer; 137 mM NaCl, 4 mM KCl in assay buffer), human GluN1/GluN2B, read-out: NR2B IC50 (μM) standard assay
Observed property: IC50
In your response, put the unit directly after the numeric value.

[
  {
    "Smiles representation": "COCCNC(=O)Cn1c(=O)[nH]c2ncc(-c3ccc(F)c(Cl)c3)cc21",
    "Observed property": "IC50",
    "Observed measurement": "0.116 µM"
  }
]

Your task in this section: give IC50 for each listed record.
1. Cn1c(=O)n(CC(=O)NCCCCl)c2cc(-c3ccc(C(F)(F)F)s3)cnc21
2. Cn1c(=O)n(Cc2cccnc2)c2cc(-c3cc(F)cc(F)c3)cnc21
3. Cc1cc(-c2cnc3[nH]c(=O)n(CC(=O)N4CCC4)c3c2)sc1Cl

-- reply
["0.862 µM", "1.03 µM", "0.015 µM"]

----------
Target: human GluN1/GluN2B NMDA receptors (Homo sapiens, UniProt Q13224)
Construct: expressed in transfected cells
Assay: Cell-based calcium flux (FLIPR) assay on cloned human NR1/NR2B ion channels expressed in mammalian cells (standard and HTS buffer variants)
Conditions: HTS assay buffer (1.5 mM MgCl2 in dye loading buffer; 150 mM NaCl, 3 mM KCl in assay buffer), human GluN1/GluN2B, read-out: NR2B IC50 (μM) HTS assay
I'd appreciate it if you marked entries T when IC50 is lower than 3 µM and F when it is not.

Reference set, count: 5
[
  {
    "Smiles representation": "COc1ccc(-c2cnc3[nH]c(=O)n(Cc4cccc(C#N)c4)c3c2)cc1",
    "Class label": "F"
  },
  {
    "Smiles representation": "Cc1cc(C)cc(-c2cnc3[nH]c(=O)n(Cc4ccccc4C#N)c3c2)c1",
    "Class label": "F"
  },
  {
    "Smiles representation": "CCOc1ccc(F)cc1-c1cnc2[nH]c(=O)n(Cc3c(C)noc3C)c2c1",
    "Class label": "F"
  },
  {
    "Smiles representation": "N#Cc1cccc(-c2cnc3[nH]c(=O)n(Cc4ccccc4C#N)c3c2)c1",
    "Class label": "F"
  },
  {
    "Smiles representation": "Cc1noc(C)c1Cn1c(=O)[nH]c2ncc(-c3cccc(C#N)c3)cc21",
    "Class label": "F"
  }
]

-- ask Find out if reported IC50 for COCCNC(=O)Cn1c(=O)[nH]c2ncc(-c3cccc(C(F)(F)F)c3)cc21 is less than 3 µM
-- reply T

-- ask Find out if reported IC50 for CCOc1ccccc1-c1cnc2[nH]c(=O)n(Cc3ccccc3F)c2c1 is less than 3 µM
-- reply F

----------
Molecular target: human GluN1/GluN2B NMDA receptors (Homo sapiens)
Construct: expressed in transfected cells
Test: Cell-based calcium flux (FLIPR) assay on cloned human NR1/NR2B ion channels expressed in mammalian cells (standard and HTS buffer variants);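 note: stable Tet-On inducible cell line, Ca2+ influx triggered by glutamate at about EC40 plus 10 µM glycine, fluorescent dye read-out over 5 min, normalized to control wells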
Conditions: standard assay buffer (0.5 mM MgCl2 in dye loading buffer; 137 mM NaCl, 4 mM KCl in assay buffer), human GluN1/GluN2B, read-out: NR2B IC50 (μM) standard assay
Each record's class is read off its IC50 using these ranges: bottom bin: < 0.04 µM; middle bin: ≥ 0.04 µM and < 0.3 µM; top bin: ≥ 0.3 µM

Reference set, count: 8
[
  {
    "Smiles representation": "Cc1cc(-c2cnc3c(c2)n(Cc2cccnc2)c(=O)n3C)sc1Cl",
    "Tested system": "human GluN1/GluN2B NMDA receptors (Homo sapiens)",
    "Class label": "middle bin"
  },
  {
    "Smiles representation": "Cn1c(=O)n(CC(=O)N2CC(F)C2)c2cc(-c3ccc(F)c(C(F)(F)F)c3)cnc21",
    "Tested system": "human GluN1/GluN2B NMDA receptors (Homo sapiens)",
    "Class label": "bottom bin"
  },
  {
    "Smiles representation": "Cc1c(F)ccc(-c2cnc3c(c2)n(Cc2csnn2)c(=O)n3C)c1F",
    "Tested system": "human GluN1/GluN2B NMDA receptors (Homo sapiens)",
    "Class label": "middle bin"
  },
  {
    "Smiles representation": "Cc1ccc(-c2cnc3c(c2)n(Cc2cn(C)nn2)c(=O)n3C)s1",
    "Tested system": "human GluN1/GluN2B NMDA receptors (Homo sapiens)",
    "Class label": "top bin"
  },
  {
    "Smiles representation": "COc1cc(F)ccc1-c1cnc2[nH]c(=O)n(Cc3ccccc3C#N)c2c1",
    "Tested system": "human GluN1/GluN2B NMDA receptors (Homo sapiens)",
    "Class label": "middle bin"
  },
  {
    "Smiles representation": "CNC(=O)Cn1c(=O)[nH]c2ncc(-c3cccc(C(F)(F)F)c3)cc21",
    "Tested system": "human GluN1/GluN2B NMDA receptors (Homo sapiens)",
    "Class label": "middle bin"
  },
  {
    "Smiles representation": "Cc1cc(C)cc(-c2cnc3[nH]c(=O)n(CC4CC4)c3c2)c1",
    "Tested system": "human GluN1/GluN2B NMDA receptors (Homo sapiens)",
    "Class label": "top bin"
  },
  {
    "Smiles representation": "Cc1cc(F)cc(-c2cnc3c(c2)n(Cc2cccnn2)c(=O)n3C)c1",
    "Tested system": "human GluN1/GluN2B NMDA receptors (Homo sapiens)",
    "Class label": "bottom bin"
  }
]

-- ask Would you mind sorting COc1cc(F)ccc1-c1cnc2[nH]c(=O)n(Cc3cc(C)on3)c2c1 into the appropriate category?
-- reply bottom bin
